Below: a set of entries, each annotated with reported IC50.
# assay-system: LINE1 reverse transcriptase (Homo sapiens)
# Construct: expressed in transfected cells; host or cells: HeLa Tet-On 3G (Takara, cat no 631183)
# Sequence (O00370 whole entry, looked up): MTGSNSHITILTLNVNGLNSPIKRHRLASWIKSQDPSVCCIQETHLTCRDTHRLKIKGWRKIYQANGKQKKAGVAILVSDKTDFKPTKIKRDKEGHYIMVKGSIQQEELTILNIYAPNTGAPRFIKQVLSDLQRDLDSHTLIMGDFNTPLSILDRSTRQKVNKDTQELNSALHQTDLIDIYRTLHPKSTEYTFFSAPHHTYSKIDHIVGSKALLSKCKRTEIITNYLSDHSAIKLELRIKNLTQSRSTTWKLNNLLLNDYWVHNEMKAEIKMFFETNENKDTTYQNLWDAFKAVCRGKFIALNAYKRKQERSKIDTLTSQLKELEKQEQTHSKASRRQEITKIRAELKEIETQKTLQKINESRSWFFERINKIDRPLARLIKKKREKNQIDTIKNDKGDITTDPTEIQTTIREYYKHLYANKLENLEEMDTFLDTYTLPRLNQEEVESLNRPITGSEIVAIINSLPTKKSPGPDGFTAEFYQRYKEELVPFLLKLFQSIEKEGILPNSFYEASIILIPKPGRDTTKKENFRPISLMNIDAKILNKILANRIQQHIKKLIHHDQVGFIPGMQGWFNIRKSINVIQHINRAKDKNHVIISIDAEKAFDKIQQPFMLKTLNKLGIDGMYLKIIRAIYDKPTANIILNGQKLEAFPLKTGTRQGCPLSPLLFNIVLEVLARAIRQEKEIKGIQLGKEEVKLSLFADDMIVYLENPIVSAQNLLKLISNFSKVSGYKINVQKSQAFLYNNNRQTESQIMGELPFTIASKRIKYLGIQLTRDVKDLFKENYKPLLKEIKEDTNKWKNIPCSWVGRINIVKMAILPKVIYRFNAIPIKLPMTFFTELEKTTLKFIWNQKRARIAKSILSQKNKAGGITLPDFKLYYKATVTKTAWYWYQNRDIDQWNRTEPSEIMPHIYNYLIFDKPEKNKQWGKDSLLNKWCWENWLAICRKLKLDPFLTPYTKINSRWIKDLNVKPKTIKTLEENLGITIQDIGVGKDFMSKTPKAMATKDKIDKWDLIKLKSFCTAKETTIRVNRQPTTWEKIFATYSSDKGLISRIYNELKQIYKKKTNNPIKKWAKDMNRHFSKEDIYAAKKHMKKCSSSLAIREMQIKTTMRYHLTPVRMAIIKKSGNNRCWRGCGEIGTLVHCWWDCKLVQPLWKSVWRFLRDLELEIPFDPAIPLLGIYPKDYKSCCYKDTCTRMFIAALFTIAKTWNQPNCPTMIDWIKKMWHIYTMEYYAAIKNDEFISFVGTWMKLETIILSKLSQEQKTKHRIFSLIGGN
# test: Stable artificial-intron Cis LINE1 reporter assay (HeLa Tet-On 3G, Firefly luciferase)
# Format: cell-based
# test-conditions: HeLa L1 artificial-intron reporter cells, doxycycline 500 ng/mL, 72 h, class symbols

Worked set:
{"compound": "Nc1nc(F)nc2c1ncn2[C@H]1C[C@H](O)C(CO)(CO)O1 [Compound 10]", "reported": "> 1000 nM"}
{"compound": "C#C[C@]1(CO)O[C@@H](n2cnc3c(N)ncnc32)C[C@@H]1O [Compound 27]", "reported": "≤ 50 nM"}
{"compound": "O=c1[nH]c(=O)n([C@@H]2O[C@@](CO)(CCO)[C@@H](O)[C@@H]2F)cc1F [Compound 179]", "reported": "> 1000 nM"}

Lab book: IC50 of Cc1cn([C@H]2C[C@H](O)[C@](CO)(CCl)O2)c(=O)[nH]c1=O [Compound 4] noted as > 1000 nM

For C=C[C@]1(CO)O[C@@H](n2cc(F)c(N)nc2=O)[C@@H](O)[C@@H]1O [Compound 75] the compound record lists IC50 as 100 to 250 nM

The value of IC50 measured for the compound Nc1ccn([C@@H]2O[C@@](CO)(CCl)[C@@H](O)[C@H]2F)c(=O)n1 [Compound 31] turned out to be ≤ 50 nM

For this compound ( C#C[C@]1(CO)O[C@@H](n2cc(C)c(=O)[nH]c2=O)[C@@H](F)[C@@H]1O [Compound 39] ), measured IC50 is 250 to 1000 nM

# IC50 of CC[C@]1(CO)O[C@@H](n2cnc3c(N)nc(F)nc32)C[C@@H]1O [Compound 64] = 50 to 100 nM
